- Test name: protein stability index of a GFP-peptide fusion (GPS, HEK-293T) (PSI 1-6); higher = more stable;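 note: 24-mer peptide tiles fused after GFP, lentivirally expressed, FACS-sorted into six equal bins by GFP/DsRed ratio, decoded by Illumina sequencing, PSI is the read-weighted mean bin number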
- Cond: treatment: MLN4924 1 uM, 8 h; c terminus: a fixed tail appended
Reported protein stability index maps to class as: low interval (below 3), middle interval (3 to below 4), high interval (4 or more)

The examples below pair each entry with its known result.
Seq | Class name
LAPVRQQELASLLRTYLARLPWAG [PBXIP1] | low interval
PTPDDHVFRWLAYSYASTHRLMTD [CPXM2] | low interval
VSTWFANARRRLKKENKMTWAPKN [IRX6] | low interval
MAEISRIQYEMEYTEGISQRMRVP [MFF] | low interval
MDNYADLSDTELTTLLRRYNIPHG [EMD] | middle interval
LMELDMAMEPDRKAAVSHWQQQSY [CTNNB1] | middle interval

Shifting focus to the sequence that follows.
Incoming: Sort LVGDSDVGKGEILASLQDGAAESP [RAB40B] into one of the categories.
Outgoing: high interval

====

- Test name: protein stability index of a GFP-peptide fusion (GPS, HEK-293T) (PSI 1-6); higher = more stable
- Cond: treatment: MLN4924 1 uM, 8 h; c terminus: a fixed tail appended
We use 4 as the dividing line for protein stability index: on or above the line is yes (1), below is no (0).

Seq | Class name
PPALQNNLLSPLLTGTESPFDLEQ [NFE2L1] | yes (1)
PEQQVDMHDMLLEELAPVGTAHIP [ZNF449] | yes (1)
DLEPGVLMSAQTITSETTSTTTTT [EPB41L3] | yes (1)
LSLLTNRGSKMFKLRQMRVEKFIY [MYOZ1] | no (0)
MSKLGKFFKGGGSSKSRAAPSPQE [CHMP4C] | no (0)

Shifting focus to the sequence that follows.
Incoming: Given QGSQASQAPPVPGPPPGAPHTPQT [NR2F2] , state whether its protein stability index is at least 4.
Outgoing: yes (1)

====

protein stability index: recorded values
- Test name: protein stability index of a GFP-peptide fusion (GPS, HEK-293T) (PSI 1-6); higher = more stable
- Cond: treatment: MLN4924 1 uM, 8 h; c terminus: a fixed tail appended
Give the figure by itself; no unit, no explanation.

The examples below pair each entry with its known result.
Seq | protein stability index
DSLDEARSSGSEGTPADTGDLSPG [PWWP2B] | 5.52
SDSLLTGMAFFKMREMFFEDHIDD [CNOT7] | 3.3
RRKGEMGLSAEDGVWAVIISHQQC [TRIM15] | 2.16
LLLLLLASLLPSARLASPLPREEE [ADAMTS4] | 3.08
EESEKAMQERVQRLEAARLSLEEE [LRRC45] | 5.57
LRPQRTKQYVLLSILLCLLASGLV [TMEM106C] | 2.9
MPPVSYDVQLLHSWNNNDRSLNVF [SPSB1] | 2.26
FPNQKSEAAEPPKTPPSSCDSTNA [KMT5A] | 5.53

Then this sequence:
Incoming: Name the recorded protein stability index for NAKAHCGATALHFAAEAGHIDIVK [FEM1B] .
Outgoing: 2.62

====

- Test name: protein stability index of a GFP-peptide fusion (GPS, HEK-293T) (PSI 1-6); higher = more stable
- Cond: treatment: MLN4924 1 uM, 8 h; c terminus: a fixed tail appended
We use 4 as the dividing line for protein stability index: on or above the line is True, below is False.

Seq | Class name
REFKVTDARDGQSRTVRQFQFTDW [PTPRD] | False
AEYPANGSGADRIYDLNIPAFVKF [NCK2] | False
LGVIQRDLAKTGCVDLTITNLLEG [AUP1] | False

Incoming: Given PYTPSPSSSRPISPGLSYASHTVG [CCDC6] , state whether its protein stability index is at least 4.
Outgoing: False

Incoming: Given RKDMIAEKLAPSEITEELPSSQLM [ZNF396] , state whether its protein stability index is at least 4.
Outgoing: True

Incoming: Given CEEKAKKNANRPLLDEIVPVYRRD [ACBD3] , state whether its protein stability index is at least 4.
Outgoing: True

Incoming: Given AGPAFDSDPEISDVDEDEPGGLVG [PPFIA4] , state whether its protein stability index is at least 4.
Outgoing: True

Incoming: Given SWDTESSGSDSGGSSSSSSSSINS [FAM104A] , state whether its protein stability index is at least 4.
Outgoing: True

Incoming: Given LDMDEGTLSFIVDGQYLGVAFRGL [SPSB4] , state whether its protein stability index is at least 4.
Outgoing: False

Incoming: Given HWACKRNHGQVVSYLLKSGADKEI [ANKRD40] , state whether its protein stability index is at least 4.
Outgoing: False

Incoming: Given MVGGNAVPQRTAGGDVPERELYIR [MYORG] , state whether its protein stability index is at least 4.
Outgoing: True

Incoming: Given GSSETNLLQHLLEACGRCEEVPEA [PYCR3] , state whether its protein stability index is at least 4.
Outgoing: True
